- Tested on: 945468-187-T-J2-PDC spheroids viability;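 further: spheroids exposed to compounds for seven days before reading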
- testDescription: Anticancer human tumor 945468-187-T-J2-PDC patient-derived rectal carcinoma cell line growth inhibition [PI3K]
- measurementConditions: second compound 0.0316 µM; first compound 0.0316 µM; hits give low values; spheroids with HUVEC and MSC
- Description: Combinatorial screen of targeted agents with the PI3K inhibitors inavolisib, alpelisib, duvelisib, and copanlisib in multi-cell type tumor spheroids A high-throughput screen of multi-cell type tumor spheroids was designed to identify active combinations of targeted small molecules and PI3K pathway inhibitors. […] Compounds. […] If the clinical Cmax for an agent had not been determined, the highest concentration tested was 10 microM. […]
Assign labels as follows, please: criterion met for viability, T/C below 90%; criterion not met for viability, T/C equal to or exceeding 90%.

{"molecule": "CC1(C)CCC(CN2CCN(c3ccc(C(=O)NS(=O)(=O)c4ccc(NCC5CCOCC5)c([N+](=O)[O-])c4)c(Oc4cnc5[nH]ccc5c4)c3)CC2)=C(c2ccc(Cl)cc2)C1 + Cc1nc(NC(=O)N2CCCC2C(N)=O)sc1-c1ccnc(C(C)(C)C(F)(F)F)c1", "testSystem": "945468-187-T-J2-PDC spheroids viability", "assignedCategory": "criterion not met"}
{"molecule": "Cn1ncnc1[C@H]1c2n[nH]c(=O)c3cc(F)cc(c23)N[C@@H]1c1ccc(F)cc1 + CC(Nc1ccc2c(c1)OCCn1cc(N3C(=O)OCC3C(F)F)nc1-2)C(N)=O", "testSystem": "945468-187-T-J2-PDC spheroids viability", "assignedCategory": "criterion not met"}
{"molecule": "Cn1ncnc1[C@H]1c2n[nH]c(=O)c3cc(F)cc(c23)N[C@@H]1c1ccc(F)cc1 + COc1c(OCCCN2CCOCC2)ccc2c3n(c(=NC(=O)c4cnc(N)nc4)nc12)CCN3", "testSystem": "945468-187-T-J2-PDC spheroids viability", "assignedCategory": "criterion not met"}
{"molecule": "C[C@@H](NC(=O)c1ncnc(N)c1Cl)c1ncc(C(=O)Nc2cc(C(F)(F)F)c(Cl)cn2)s1 + CC(Nc1ccc2c(c1)OCCn1cc(N3C(=O)OCC3C(F)F)nc1-2)C(N)=O", "testSystem": "945468-187-T-J2-PDC spheroids viability", "assignedCategory": "criterion met"}
{"molecule": "Cn1ncc(Cl)c1-c1cc(C(=O)NC(CN)Cc2cccc(F)c2)sc1Cl (stereo unspecified) + COc1c(OCCCN2CCOCC2)ccc2c3n(c(=NC(=O)c4cnc(N)nc4)nc12)CCN3", "testSystem": "945468-187-T-J2-PDC spheroids viability", "assignedCategory": "criterion met"}
{"molecule": "Cn1nccc1Nc1nccc(-c2ccn(C(CO)c3ccc(Cl)c(F)c3)c(=O)c2)n1 (stereo unspecified) + CC(Nc1ncnc2nc[nH]c12)c1cc2cccc(Cl)c2c(=O)n1-c1ccccc1", "testSystem": "945468-187-T-J2-PDC spheroids viability", "assignedCategory": "criterion not met"}
{"molecule": "C[C@@H](NC(=O)c1ncnc(N)c1Cl)c1ncc(C(=O)Nc2cc(C(F)(F)F)c(Cl)cn2)s1 + CC(Nc1ncnc2nc[nH]c12)c1cc2cccc(Cl)c2c(=O)n1-c1ccccc1", "testSystem": "945468-187-T-J2-PDC spheroids viability", "assignedCategory": "criterion met"}
{"molecule": "CC(C)n1nc(-c2ccc3oc(N)nc3c2)c2c(N)ncnc21 + CC(Nc1ccc2c(c1)OCCn1cc(N3C(=O)OCC3C(F)F)nc1-2)C(N)=O", "testSystem": "945468-187-T-J2-PDC spheroids viability", "assignedCategory": "criterion not met"}
{"molecule": "C[C@@H](NC(=O)c1ncnc(N)c1Cl)c1ncc(C(=O)Nc2cc(C(F)(F)F)c(Cl)cn2)s1 + Cc1nc(NC(=O)N2CCCC2C(N)=O)sc1-c1ccnc(C(C)(C)C(F)(F)F)c1", "testSystem": "945468-187-T-J2-PDC spheroids viability", "assignedCategory": "criterion not met"}
{"molecule": "CC1(C)CCC(Nc2ncc(C(F)(F)F)c(-c3c[nH]c4c(P(C)(C)=O)c(C#N)ccc34)n2)CN1 (stereo unspecified) + COc1c(OCCCN2CCOCC2)ccc2c3n(c(=NC(=O)c4cnc(N)nc4)nc12)CCN3", "testSystem": "945468-187-T-J2-PDC spheroids viability", "assignedCategory": "criterion not met"}
